Source of measurements: PubChem BioAssay (NCI)

# System: LOX IMVI melanoma
# PROTOCOL_NOTES: NCI tumour cell line growth inhibition, 48 h
For each record, write down the corresponding TGI.

q: Return TGI for the following compound: COc1c(CC=C(C)C)c(O)c(C(CC(C)C)c2c(O)c3c(c(C(C)=O)c2O)OC(C(C)(C)O)C3)c(O)c1C(C)=O (configuration not stated)
a: > 12.5 µM

q: Return TGI for the following compound: CC(C)(O)[C@@H]1CC[C@@]2(C)CCCC(O)C2(O)C1 (some centres not stated)
a: > 100 µM

q: Return TGI for the following compound: `CCOC(=O)c1c[nH]c2c(Sc3ccccc3)nccc2c1=O`
a: > 100 µM

q: Return TGI for the following compound: `Cc1cc(C)n(CC(Cn2nc(C)cc2C)=C(/C(Cl)=C(/Cl)Nc2ccc([N+](=O)[O-])cc2)[N+](=O)[O-])n1`
a: 6.06 µM

q: Return TGI for the following compound: `CC(=O)Nc1ccc(NCC(=O)Nn2cnc3ccc(S(=O)(=O)Nc4ccc(NC(C)=O)cc4)cc3c2=O)cc1`
a: > 100 µM

q: Return TGI for the following compound: COC(=O)C1CCC(=O)N1CN(C(C)=O)c1ccccc1Cl (configuration not stated)
a: > 100 µM

q: Return TGI for the following compound: `CCN(Cc1ccc(C)cc1)c1ccc(CO)c(Cl)c1`
a: 19.9 µM

q: Return TGI for the following compound: `COc1ccccc1NC(=S)N/N=C/c1c(C)n(C)n(-c2ccccc2)c1=O`
a: > 100 µM

q: Return TGI for the following compound: `O=c1[nH]c2ccccc2c(=O)n1/N=C/c1ccc(O)cc1`
a: > 100 µM

q: Return TGI for the following compound: CC(N)C(Cc1ccc(Cl)cc1)c1ccc(Cl)cc1 (configuration not stated)
a: 18.9 µM

q: Return TGI for the following compound: `O=c1[nH]c2ccccc2c2ccccc12`
a: > 100 µM

q: Return TGI for the following compound: c1ccc(-c2nnn3c2NC2=C(CCCC2)C3c2ccccc2)cc1 (configuration not stated)
a: 27 µM

q: Return TGI for the following compound: `N#Cc1cc(C#N)c(N)nc1N`
a: > 100 µM

q: Return TGI for the following compound: `O=c1ccn(CC2(CO)CCC2)c(=O)[nH]1`
a: > 100 µM

q: Return TGI for the following compound: `CC(C)(C)OC(=O)n1c2ccccc2c2c(=O)nc(N3CCCCC3)sc21`
a: > 100 µM

q: Return TGI for the following compound: `NNC(=S)N/N=C(\C(=O)Nc1cccc(O)c1)C1C(=O)NC(=S)NC1=O`
a: > 100 µM

q: Return TGI for the following compound: `O=C(NCCCCCCCCCCCCNC(=O)c1cccc2ccccc12)c1cccc2ccccc12`
a: > 100 µM

q: Return TGI for the following compound: N#CC12Cc3cc4c(cc3-c3cccc(c31)CCN2C(=O)c1ccccc1)OCO4 (configuration not stated)
a: > 100 µM

q: Return TGI for the following compound: `CC(C)OC(=O)c1ccc(CCC2=CC(=O)C=CC2=O)cc1`
a: 14.2 µM

q: Return TGI for the following compound: Oc1ccc(O)c(CNc2ccc(C(O)C(F)(F)F)cc2)c1 (configuration not stated)
a: 32.2 µM

q: Return TGI for the following compound: `O=C(NC1(c2cc3ccccc3s2)CCCCC1)C1CCC1`
a: > 100 µM

q: Return TGI for the following compound: COc1ccc(N=NC(=O)NC(Cc2ccccc2)C(=O)O)cc1 (configuration not stated)
a: > 100 µM
